system: KARN cells (Jurkat 2C4); assay: cells; type: cell-based; settings: Homo sapiens, Jurkat, read-out: Karn EC50 (nM) 5% NHS, 5% normal human serum; luciferase induction, 100% = 2 μM SAHA
# EC50 per record follows
Answer as a quantity: numeral, then unit.

Would you kindly share the measured EC50 for `CCC(=O)CCCCC[C@H](NC(=O)[C@H]1CC12CCN(CC)CC2)c1ncc(-c2ccc3ncccc3c2)[nH]1` ? 57 nM

Can you check CCC(=O)CCCCCC(NC(=O)C1CCC2(CC1)OC(=O)c1ccncc12)c1nnc(-c2cc3ccccc3nc2OC)o1 (centres unmarked) next? 4810 nM

Can you check `CCC(=O)CCCCC[C@H](NC(=O)[C@H]1CC12CCN(CC1CC1)CC2)c1ncc(-c2cc3cccnc3cc2OC)[nH]1` next? 24 nM

Can you check `CCC(=O)CCCCC[C@H](NC(=O)C1=NOC2(CCN(CC)CC2)C1)c1ncc(-c2cc3ccc(=O)n(C)c3cc2OC)o1` next? 411 nM

Can you check `CCC(=O)CCCCC[C@H](NC(=O)C1=NOC2(CCN(C)CC2)C1)c1ncc(-c2ccc(-c3cccnc3)cc2OC)o1` next? 364 nM

Can you check `CCC(=O)CCCCC[C@H](NC(=O)[C@H]1CC12CN(C)C2)c1ncc(-c2cc3ccccc3nc2OC)[nH]1` next? 1290 nM

Can you check `CCC(=O)CCCCC[C@H](NC(=O)[C@H]1CC12CCN(CC(C)C)CC2)c1ncc(-c2cc3ccccc3nc2OC)[nH]1` next? 63 nM

Can you check CCC(=O)CCCCCC(NC(=O)C1CCC2(CC1)OC(=O)c1ncccc12)c1nnc(-c2cc3ccccc3nc2OC)o1 (centres unmarked) next? 3830 nM

Can you check `CCC(=O)CCCCC[C@H](NC(=O)[C@H]1CC[C@@]2(CC1)OC(=O)c1ccncc12)c1ncc(-c2ccccc2)[nH]1` next? 5250 nM

====

tested on: KARN cells (Jurkat 2C4); test: cells; assay type: cell-based; conditions: Homo sapiens, Jurkat, read-out: Karn EC50 (nM) 5% NHS, 5% normal human serum; luciferase induction, 100% = 2 μM SAHA
# EC50 per record follows

Would you kindly share the measured EC50 for CCC(=O)CCCCC[C@H](NC(=O)[C@H]1CC[C@]2(CC1)OC(=O)c1ncccc12)c1nnc(-c2cc3ccccc3nc2OC)o1 [Compound 367] ? 4490 nM

Can you check CCC(=O)CCCCC[C@H](NC(=O)C1CC12CN(C)C2)c1ncc(-c2cc3ccccc3nc2OC)[nH]1 (stereo partly shown) [Compound 312] next? 633 nM

Can you check CCC(=O)CCCCC[C@H](NC(=O)C1CCC2(CC1)CN(CC)C2)c1ncc(-c2cc3ccccc3nc2OC)[nH]1 [Compound 271] next? 634 nM

Can you check CCC(=O)CCCCC[C@H](NC(=O)[C@H]1CC12CCN(C)CC2)c1ncc(-c2cc3ccccc3nc2O)[nH]1 (single isomer, unassigned) [Compound 325] next? 216 nM

Can you check CCC(=O)CCCCC[C@H](NC(=O)[C@@H]1CC12CCN(C(N)=O)CC2)c1ncc(-c2cc3ccccc3nc2OC)[nH]1 (single isomer, unassigned) [Compound 318] next? 4600 nM

Can you check CCC(=O)CCCCC[C@H](NC(=O)[C@H]1CC12CCN(Cc1cccnc1)CC2)c1ncc(-c2cc3ccccc3nc2OC)[nH]1 [Compound 294] next? 277 nM

Can you check CCC(=O)CCCCC[C@H](NC(=O)[C@H]1CC[C@]2(CC1)OC(=O)c1cccnc12)c1nnc(-c2cc3ccccc3nc2OC)o1 [Compound 368] next? 5240 nM

Can you check CCN[C@@H](CCCCCC(=O)CC)c1ncc(-c2cc3ccc(C)nc3cc2OC)[nH]1 [Compound 403] next? 5600 nM

Can you check CCC(=O)CCCCC[C@H](NC(=O)[C@H]1CC12CCN(CC)CC2)c1ncc(-c2ccc3cccnc3c2)[nH]1 [Compound 344] next? 54 nM

Can you check CCC(=O)CCCCC[C@H](NC(=O)[C@H]1CC12CCN(C(N)=O)CC2)c1ncc(-c2cc3ccccc3nc2OC)[nH]1 (single isomer, unassigned) [Compound 319] next? 9850 nM

Can you check CCC(=O)CCCCC[C@H](NC(=O)C1CC12CCNCC2)c1nnc(-c2cc3ccccc3nc2OC)o1 (stereo partly shown) [Compound 303] next? 4260 nM

Can you check CCC(=O)CCCCC[C@H](NC(=O)[C@H]1CC12CCN(C)CC2)c1ncc(-c2ccc(C(F)(F)F)cc2)[nH]1 [Compound 284] next? 598 nM

Can you check CCC(=O)CCCCC[C@H](NC(=O)[C@@H]1CC12CN(C)C2)c1ncc(-c2cc3ccc(C)nc3cc2OC)o1 (single isomer, unassigned) [Compound 231] next? 535 nM

Value source: patent US12590099B2
